test system: HCT-116; experiment: Growth inhibition of human HCT116 cells; type: functional; conditions: read-out: LC50 (the source's name)
recorded metric: CC50 (µM)

line notation	target	reported relation	assay value
COc1ccc(-n2n[n+](C)c3c2C(=O)c2ccccc2C3=O)cc1.O=S(=O)([O-])C(F)(F)F	HCT-116	>	100
Cc1ccc(-n2n[n+](C)c3c2C(=O)c2ccccc2C3=O)cc1.O=S(=O)([O-])C(F)(F)F	HCT-116	=	7.92
COc1cc(OC)cc(-n2n[n+](C)c3c2C(=O)c2ccccc2C3=O)c1.O=S(=O)([O-])C(F)(F)F	HCT-116	=	48.6
C[n+]1nn(-c2ccc(C(F)(F)F)cc2)c2c1C(=O)c1ccccc1C2=O.O=S(=O)([O-])C(F)(F)F	HCT-116	=	41.9
COc1ccc(-n2n[n+](C)c3c2C(=O)c2ccccc2C3=O)cc1OC.O=S(=O)([O-])C(F)(F)F	HCT-116	=	9.53
COc1cc(-n2n[n+](C)c3c2C(=O)c2ccccc2C3=O)cc(OC)c1OC.O=S(=O)([O-])C(F)(F)F	HCT-116	=	18
C[n+]1nn(-c2ccccc2)c2c1C(=O)c1ccccc1C2=O.[Cl-]	HCT-116	=	1.5
C[n+]1nn(-c2ccc(F)cc2)c2c1C(=O)c1ccccc1C2=O.O=S(=O)([O-])C(F)(F)F	HCT-116	=	8.19

###

tested on: COLO 205; assay: Growth inhibition of human COLO205 cells; format: functional; settings: read-out: LC50 (the source's name)
In this section we review reported CC50 values for a set of compounds.

line notation	target	CC50
Cc1ccc(-n2n[n+](C)c3c2C(=O)c2ccccc2C3=O)cc1.O=S(=O)([O-])C(F)(F)F	COLO 205	4.43 µM
C[n+]1nn(-c2ccc(F)cc2)c2c1C(=O)c1ccccc1C2=O.O=S(=O)([O-])C(F)(F)F	COLO 205	3.54 µM
COc1cc(-n2n[n+](C)c3c2C(=O)c2ccccc2C3=O)cc(OC)c1OC.O=S(=O)([O-])C(F)(F)F	COLO 205	5.05 µM
C[n+]1nn(-c2ccccc2)c2c1C(=O)c1ccccc1C2=O.[Cl-]	COLO 205	0.62 µM
COc1cc(OC)cc(-n2n[n+](C)c3c2C(=O)c2ccccc2C3=O)c1.O=S(=O)([O-])C(F)(F)F	COLO 205	5.35 µM
COc1ccc(-n2n[n+](C)c3c2C(=O)c2ccccc2C3=O)cc1.O=S(=O)([O-])C(F)(F)F	COLO 205	0.96 µM
C[n+]1nn(-c2ccc(C(F)(F)F)cc2)c2c1C(=O)c1ccccc1C2=O.O=S(=O)([O-])C(F)(F)F	COLO 205	5.73 µM
COc1ccc(-n2n[n+](C)c3c2C(=O)c2ccccc2C3=O)cc1OC.O=S(=O)([O-])C(F)(F)F	COLO 205	5.71 µM

###

test system: SK-MEL-5; test: Growth inhibition of human SK-MEL-5 cells; format: functional
recorded metric: LC50 (lethal concentration 50) (nM)

line notation	target	assay value
COc1ccc(-n2n[n+](C)c3c2C(=O)c2ccccc2C3=O)cc1OC.O=S(=O)([O-])C(F)(F)F	SK-MEL-5	570
COc1cc(-n2n[n+](C)c3c2C(=O)c2ccccc2C3=O)cc(OC)c1OC.O=S(=O)([O-])C(F)(F)F	SK-MEL-5	2320
COc1cc(OC)cc(-n2n[n+](C)c3c2C(=O)c2ccccc2C3=O)c1.O=S(=O)([O-])C(F)(F)F	SK-MEL-5	660
C[n+]1nn(-c2ccccc2)c2c1C(=O)c1ccccc1C2=O.[Cl-]	SK-MEL-5	550

###

system: M14; assay: Growth inhibition of human M14 cells; assay type: functional
recorded metric: GI50

line notation	assay value
C[n+]1nn(-c2ccc(C(F)(F)F)cc2)c2c1C(=O)c1ccccc1C2=O.O=S(=O)([O-])C(F)(F)F	0.54 µM
COc1cc(OC)cc(-n2n[n+](C)c3c2C(=O)c2ccccc2C3=O)c1.O=S(=O)([O-])C(F)(F)F	0.5 µM
COc1cc(-n2n[n+](C)c3c2C(=O)c2ccccc2C3=O)cc(OC)c1OC.O=S(=O)([O-])C(F)(F)F	0.48 µM
C[n+]1nn(-c2ccccc2)c2c1C(=O)c1ccccc1C2=O.[Cl-]	0.2 µM
C[n+]1nn(-c2ccc(F)cc2)c2c1C(=O)c1ccccc1C2=O.O=S(=O)([O-])C(F)(F)F	0.34 µM
COc1ccc(-n2n[n+](C)c3c2C(=O)c2ccccc2C3=O)cc1.O=S(=O)([O-])C(F)(F)F	0.21 µM
COc1ccc(-n2n[n+](C)c3c2C(=O)c2ccccc2C3=O)cc1OC.O=S(=O)([O-])C(F)(F)F	0.33 µM
Cc1ccc(-n2n[n+](C)c3c2C(=O)c2ccccc2C3=O)cc1.O=S(=O)([O-])C(F)(F)F	0.26 µM

###

test system: NCI-H322M; experiment: Growth inhibition of human NCI-H322M cells; format: functional; details: read-out: LC50 (the source's name)
recorded metric: CC50 (µM)

line notation	target	assay value
COc1ccc(-n2n[n+](C)c3c2C(=O)c2ccccc2C3=O)cc1OC.O=S(=O)([O-])C(F)(F)F	NCI-H322M	3.34
COc1cc(OC)cc(-n2n[n+](C)c3c2C(=O)c2ccccc2C3=O)c1.O=S(=O)([O-])C(F)(F)F	NCI-H322M	3.68
C[n+]1nn(-c2ccc(F)cc2)c2c1C(=O)c1ccccc1C2=O.O=S(=O)([O-])C(F)(F)F	NCI-H322M	4.22
Cc1ccc(-n2n[n+](C)c3c2C(=O)c2ccccc2C3=O)cc1.O=S(=O)([O-])C(F)(F)F	NCI-H322M	5.38
C[n+]1nn(-c2ccc(C(F)(F)F)cc2)c2c1C(=O)c1ccccc1C2=O.O=S(=O)([O-])C(F)(F)F	NCI-H322M	4.86
COc1cc(-n2n[n+](C)c3c2C(=O)c2ccccc2C3=O)cc(OC)c1OC.O=S(=O)([O-])C(F)(F)F	NCI-H322M	5.27

###

tested on: HT-29; assay: Growth inhibition of human HT-29 cells; assay type: functional
recorded metric: log10 GI50 (log10 of the value in nM)

line notation	log10 GI50
Cc1ccc(-n2n[n+](C)c3c2C(=O)c2ccccc2C3=O)cc1.O=S(=O)([O-])C(F)(F)F	3.32
C[n+]1nn(-c2ccc(F)cc2)c2c1C(=O)c1ccccc1C2=O.O=S(=O)([O-])C(F)(F)F	3.40
COc1cc(OC)cc(-n2n[n+](C)c3c2C(=O)c2ccccc2C3=O)c1.O=S(=O)([O-])C(F)(F)F	3.04
C[n+]1nn(-c2ccc(C(F)(F)F)cc2)c2c1C(=O)c1ccccc1C2=O.O=S(=O)([O-])C(F)(F)F	3.61
COc1ccc(-n2n[n+](C)c3c2C(=O)c2ccccc2C3=O)cc1OC.O=S(=O)([O-])C(F)(F)F	2.74
COc1cc(-n2n[n+](C)c3c2C(=O)c2ccccc2C3=O)cc(OC)c1OC.O=S(=O)([O-])C(F)(F)F	2.53
C[n+]1nn(-c2ccccc2)c2c1C(=O)c1ccccc1C2=O.[Cl-]	2.60
COc1ccc(-n2n[n+](C)c3c2C(=O)c2ccccc2C3=O)cc1.O=S(=O)([O-])C(F)(F)F	2.58

###

Form field: GI50 (one value per entry).
system: U-251; test: Growth inhibition of human U251 cells; assay type: functional
recorded metric: GI50 (nM)

line notation	recorded metric	assay value
COc1ccc(-n2n[n+](C)c3c2C(=O)c2ccccc2C3=O)cc1.O=S(=O)([O-])C(F)(F)F	GI50	1160
COc1ccc(-n2n[n+](C)c3c2C(=O)c2ccccc2C3=O)cc1OC.O=S(=O)([O-])C(F)(F)F	GI50	1340
COc1cc(OC)cc(-n2n[n+](C)c3c2C(=O)c2ccccc2C3=O)c1.O=S(=O)([O-])C(F)(F)F	GI50	1530
C[n+]1nn(-c2ccc(F)cc2)c2c1C(=O)c1ccccc1C2=O.O=S(=O)([O-])C(F)(F)F	GI50	7860
COc1cc(-n2n[n+](C)c3c2C(=O)c2ccccc2C3=O)cc(OC)c1OC.O=S(=O)([O-])C(F)(F)F	GI50	1540
C[n+]1nn(-c2ccc(C(F)(F)F)cc2)c2c1C(=O)c1ccccc1C2=O.O=S(=O)([O-])C(F)(F)F	GI50	14000
C[n+]1nn(-c2ccccc2)c2c1C(=O)c1ccccc1C2=O.[Cl-]	GI50	1260
Cc1ccc(-n2n[n+](C)c3c2C(=O)c2ccccc2C3=O)cc1.O=S(=O)([O-])C(F)(F)F	GI50	2430

###

test system: SNB-75; experiment: Growth inhibition of human SNB75 cells; format: functional; conditions: read-out: LC50 (the source's name)
Overview of recorded CC50 for various molecules
recorded metric: CC50 (µM)

line notation	assay value
COc1cc(-n2n[n+](C)c3c2C(=O)c2ccccc2C3=O)cc(OC)c1OC.O=S(=O)([O-])C(F)(F)F	5.34
C[n+]1nn(-c2ccccc2)c2c1C(=O)c1ccccc1C2=O.[Cl-]	5.87
COc1cc(OC)cc(-n2n[n+](C)c3c2C(=O)c2ccccc2C3=O)c1.O=S(=O)([O-])C(F)(F)F	5.47
C[n+]1nn(-c2ccc(F)cc2)c2c1C(=O)c1ccccc1C2=O.O=S(=O)([O-])C(F)(F)F	7.17
